- Tested on: Calu-3
- Test summary: cell viability relative to DMSO; higher = less toxic
- Condition label: 72 h; 1 nM
Assay endpoint: cell viability

>>> value("Cc1cnc(CNC(=O)c2c(=O)c3ccc(N4CCCN(C)CC4)nc3n3c2sc2ccccc23)cn1 [CX-5461]")
"93.9%"
>>> value("CCCCC(F)(F)[C@@]1(O)CC[C@H]2[C@@H](CC(=O)[C@@H]2CCCCCCC(=O)O)O1 [lubiprostone]")
"106%"
>>> value("CCCc1c(OCCCCc2nnn[nH]2)ccc(C(C)=O)c1O [tomelukast]")
"87.4%"
>>> value("Nc1ccc(/N=N/c2ccccc2)c(N)n1 [phenazopyridine]")
"91.9%"
>>> value("CC(C)Cn1cnc2c1c(=O)n(C)c(=O)n2C [isbufylline]")
"104%"
>>> value("FC(F)(F)c1cc(CO[C@H]2CCCN[C@H]2c2ccccc2)cc(C(F)(F)F)c1")
"97.4%"
>>> value("CCc1cnc(N2CCC(c3nc(COc4ccc(-n5cnnn5)cc4)cs3)CC2)nc1 [MBX-2982]")
"97.5%"
>>> value("CC(C)[C@@H](C)/C=C/[C@@H](C)[C@H]1CC[C@H]2/C(=C/C=C3\\C[C@@H](O)CC[C@@H]3C)CCC[C@]12C [dihydrotachysterol]")
"97.4%"
>>> value("O=C(CN1C2=NCCN2c2ccccc21)c1ccc(-c2ccccc2)cc1")
"94.5%"
>>> value("N#CC(C#N)=Cc1ccc(O)c(O)c1 [tyrphostin-AG-18]")
"93.5%"
>>> value("Cc1cc(-n2c(=O)[nH]c(=O)n(C)c2=O)ccc1Oc1ccc(SC(F)(F)F)cc1 [toltrazuril]")
"98.8%"
>>> value("O=C(O)C(=O)c1cn(Cc2ccccc2)c2ccc(-c3ccc(OC(F)(F)F)cc3)cc12 [tiplaxtinin]")
"113%"
>>> value("Cc1ccc2c(c1)C(=O)[C@]1(O)CCN(c3ccccc3)C1=N2 (racemic) [blebbistatin-(+/-)]")
"99%"
>>> value("CCCNCCc1ccc(NS(=O)(=O)c2ccc(OC(F)(F)F)cc2)cc1")
"97.8%"
>>> value("CN(NC(=O)CC(=O)NN(C)C(=S)c1ccccc1)C(=S)c1ccccc1 [elesclomol]")
"107%"
>>> value("OC[C@H]1O[C@@H](O[C@@H]2[C@H](O)[C@@H](O)[C@H](O[C@H]3[C@H](O)[C@@H](O)C(O)O[C@@H]3CO)O[C@@H]2CO)[C@H](O)[C@@H](O)[C@H]1O (some centres not stated) [4-galactosyllactose]")
"102%"
>>> value("Cc1ncc(-c2ccnc(Nc3ccc(S(C)(=O)=O)cc3)n2)n1C(C)C [AZD5438]")
"98.9%"

###

// values below are reported drug-induced phospholipidosis
- Test system: A549-ACE2
- Test summary: drug-induced phospholipidosis relative to tamoxifen; higher = more phospholipidosis
- Condition label: 0.833333 µM; 24 h
Assay endpoint: drug-induced phospholipidosis

>>> value("CN(NC(=O)CC(=O)NN(C)C(=S)c1ccccc1)C(=S)c1ccccc1")
"9.68%"
>>> value("CCOC(=O)c1c(C)[nH]c2ccc3c(c12)CN1CCc2cc(OC)ccc2C1O3 (centres undefined)")
"1.52%"
>>> value("N=C(NCCCCCCNC(=N)NC(=N)Nc1ccc(Cl)cc1)NC(=N)Nc1ccc(Cl)cc1")
"-1.75%"
>>> value("C[S+]([O-])CCCCN=C=S (centres undefined)")
"-7.24%"
